- Tested on: Aspergillus flavus
- ASSAY SUMMARY: Antifungal activity against Aspergillus flavus assessed as growth inhibition at 1 mg/well after 48 hrs by Well method
- Assay type: functional
Each item that follows carries a reported inhibition zone (IZ).
MEASUREMENT NAME: inhibition zone (IZ)

INSERT INTO measurements (compound, experimental_system, measurement_name, experimental_value) VALUES
  ('C[C@H](NCCC(=O)c1ccc(Cl)cc1)[C@H](O)c1ccccc1.Cl', 'Aspergillus flavus', 'inhibition zone (IZ)', '15 mm'),
  ('COc1ccc(C(=O)CCN[C@H](C)[C@@H](O)c2ccccc2)cc1.Cl', 'Aspergillus flavus', 'inhibition zone (IZ)', '16 mm'),
  ('COc1ccc(C(=O)CCN[C@@H](C)[C@H](O)c2ccccc2)cc1.Cl', 'Aspergillus flavus', 'inhibition zone (IZ)', '10 mm'),
  ('CC(=O)N1CCN(c2ccc(OCC3COC(Cn4ccnc4)(c4ccc(Cl)cc4Cl)O3)cc2)CC1 (stereo unspecified) [KETOCONAZOLE]', 'Aspergillus flavus', 'inhibition zone (IZ)', '24 mm'),
  ('Cc1ccc(C(=O)CCN[C@@H](C)[C@H](O)c2ccccc2)cc1.Cl', 'Aspergillus flavus', 'inhibition zone (IZ)', '22 mm'),
  ('Cc1ccc(C(=O)CCN[C@H](C)[C@@H](O)c2ccccc2)cc1.Cl', 'Aspergillus flavus', 'inhibition zone (IZ)', '20 mm');

----------
- Test system: Staphylococcus epidermidis
- ASSAY SUMMARY: Antibacterial activity against Staphylococcus epidermidis after 24 hrs by two fold serial dilution method
- Format: functional
MEASUREMENT NAME: MIC (mg/L)

INSERT INTO measurements (compound_structure_string, experimental_system, endpoint_unit, experimental_value) VALUES
  ('C[C@@H](NCCC(=O)c1ccc(Cl)cc1)[C@@H](O)c1ccccc1.Cl', 'Staphylococcus epidermidis', 'mg/L', 3.13),
  ('C[C@H](NCCC(=O)c1ccccc1)[C@H](O)c1ccccc1.Cl', 'Staphylococcus epidermidis', 'mg/L', 3.13),
  ('C[C@H](NCCC(=O)c1ccc(Cl)cc1)[C@H](O)c1ccccc1.Cl', 'Staphylococcus epidermidis', 'mg/L', 25),
  ('COc1ccc(C(=O)CCN[C@H](C)[C@@H](O)c2ccccc2)cc1.Cl', 'Staphylococcus epidermidis', 'mg/L', 6.25),
  ('C[C@@H](NCCC(=O)c1cccc(O)c1)[C@@H](O)c1ccccc1.Cl', 'Staphylococcus epidermidis', 'mg/L', 25),
  ('C[C@H](NCCC(=O)c1ccc(Cl)cc1Cl)[C@H](O)c1ccccc1.Cl', 'Staphylococcus epidermidis', 'mg/L', 25),
  ('C[C@@H](NCCC(=O)c1cccc([N+](=O)[O-])c1)[C@@H](O)c1ccccc1.Cl', 'Staphylococcus epidermidis', 'mg/L', 50),
  ('C[C@@H](NCCC(=O)c1ccc(Cl)cc1Cl)[C@@H](O)c1ccccc1.Cl', 'Staphylococcus epidermidis', 'mg/L', 3.13),
  ('COc1ccc(C(=O)CCN[C@@H](C)[C@H](O)c2ccccc2)cc1.Cl', 'Staphylococcus epidermidis', 'mg/L', 25),
  ('Cc1ccc(C(=O)CCN[C@@H](C)[C@H](O)c2ccccc2)cc1.Cl', 'Staphylococcus epidermidis', 'mg/L', 3.13);

----------
The molecules listed here are annotated with their MIC.
- System: Staphylococcus epidermidis
- ASSAY SUMMARY: Antibacterial activity against Staphylococcus epidermidis after 24 hrs by two fold serial dilution method
- Type: functional
MEASUREMENT NAME: MIC (µg/mL)

INSERT INTO assay_data (compound_structure_string, measurement_name, experimental_value) VALUES
  ('C[C@H](NCCC(=O)c1cccc([N+](=O)[O-])c1)[C@H](O)c1ccccc1.Cl', 'MIC', 50),
  ('C[C@@H](NCCC(=O)c1ccccc1)[C@@H](O)c1ccccc1.Cl', 'MIC', 12.5),
  ('C[C@H](NCCC(=O)c1cccc(O)c1)[C@H](O)c1ccccc1.Cl', 'MIC', 6.25),
  ('Cc1ccc(C(=O)CCN[C@H](C)[C@@H](O)c2ccccc2)cc1.Cl', 'MIC', 3.13);
